Origin of measurements: paper PMC10312692

molecular target: the molecule itself; test: SEC
MEASUREMENT_LABEL: binding result

DISC1 598-854 C684S/C698S/C762S/C782S/C844S (domain or fragment) GNHFFTAKDLTEEIRSLTSEREGLEGLLSKLLVLSSRNVKKLGSVKEDYNRLRREVEHQETAYETSVKENTMKYMETLKNKLCSCKSPLLGKVWEADLEASRLLIQSLQLQEARGSLSVEDERQMDDLEGAAPPIPPRLHSEDKRKTPLKVLEEFKTHLIPSLHSAGGEQKEESYILSAELGEKSEDIGKKLLYLEDQLHTAIHSHDEDLIQSLRRELQMVKETLQAMILQLQPAKEAGEREAAASSMTAGVHEAQA
binds
DISC1 598-854 C680S/C682S/C698S/C762S/C782S/C844S (domain or fragment) GNHFFTAKDLTEEIRSLTSEREGLEGLLSKLLVLSSRNVKKLGSVKEDYNRLRREVEHQETAYETSVKENTMKYMETLKNKLSSSKCPLLGKVWEADLEASRLLIQSLQLQEARGSLSVEDERQMDDLEGAAPPIPPRLHSEDKRKTPLKVLEEFKTHLIPSLHSAGGEQKEESYILSAELGEKSEDIGKKLLYLEDQLHTAIHSHDEDLIQSLRRELQMVKETLQAMILQLQPAKEAGEREAAASSMTAGVHEAQA
binds
DISC1 598-854 C682S/C698S/C762S/C782S/C844S (domain or fragment) GNHFFTAKDLTEEIRSLTSEREGLEGLLSKLLVLSSRNVKKLGSVKEDYNRLRREVEHQETAYETSVKENTMKYMETLKNKLCSSKCPLLGKVWEADLEASRLLIQSLQLQEARGSLSVEDERQMDDLEGAAPPIPPRLHSEDKRKTPLKVLEEFKTHLIPSLHSAGGEQKEESYILSAELGEKSEDIGKKLLYLEDQLHTAIHSHDEDLIQSLRRELQMVKETLQAMILQLQPAKEAGEREAAASSMTAGVHEAQA
binds
